System: microRNA 21
measurement-notes: Inhibition of Dicer mediated biotinylated pre-miRNA-21 (unknown origin) maturation at 1 mM measured after 15 mins by cat-ELCCA relative to control
Type: nucleic-acid assay
Calls of active or inactive are those of the source. The rule behind the calls is not given here.

# compound, inhibition
measured = [
    ("CN(C)[C@@H]1C(O)=C(C(N)=O)C(=O)[C@@]2(O)C(O)=C3C(=O)c4c(O)ccc(Cl)c4[C@@H](O)[C@H]3C[C@@H]12", "40 to 100%"),
    ("CN[C@@H]1[C@H](O[C@H]2[C@H](O[C@H]3[C@H](O)[C@@H](O)[C@H](N=C(N)N)[C@@H](O)[C@@H]3N=C(N)N)O[C@@H](C)[C@]2(O)C=O)O[C@@H](CO)[C@H](O)[C@H]1O [STREPTOMYCIN]", "inactive"),
    ("C=C1c2cccc(O)c2C(=O)C2=C(O)[C@]3(O)C(=O)C(C(N)=O)=C(O)[C@@H](N(C)C)[C@@H]3[C@@H](O)[C@H]12 [METHACYCLINE]", "40 to 100%"),
    ("C[C@H]1c2cccc(O)c2C(=O)C2=C(O)[C@]3(O)C(=O)C(C(N)=O)=C(O)[C@@H](N(C)C)[C@@H]3[C@@H](O)[C@@H]21 [DOXYCYCLINE]", "40 to 100%"),
    ("CN(C)[C@H]1C(O)=C(C(N)=O)C(=O)[C@@]2(O)C(O)=C3C(=O)c4c(O)cccc4[C@@](C)(O)[C@H]3C[C@@H]12", "40 to 100%"),
    ("Cc1c2c(c(O)c3c(O)cccc13)C(=O)[C@]1(O)C(=O)C(C(N)=O)=C(O)[C@@H](N(C)C)[C@@H]1C2", "40 to 100%"),
    ("CN(C)[C@@H]1C(O)=C(C(N)=O)C(=O)[C@@]2(O)C(O)=C3C(=O)c4c(O)cccc4[C@@](C)(O)[C@H]3C[C@@H]12 [TETRACYCLINE]", "40 to 100%"),
    ("CN1CCN(c2ccc3[nH]c(-c4ccc5[nH]c(-c6ccc(O)cc6)nc5c4)nc3c2)CC1", "inactive"),
    ("CN(C)[C@@H]1C(O)=C(C(N)=O)C(=O)[C@@]2(O)C(O)=C3C(=O)c4c(O)ccc(Cl)c4[C@@](C)(O)[C@H]3C[C@@H]12 [CHLORTETRACYCLINE]", "40 to 100%"),
    ("CN(C)c1cc(NC(=O)CNC(C)(C)C)c(O)c2c1C[C@H]1C[C@H]3[C@H](N(C)C)C(O)=C(C(N)=O)C(=O)[C@@]3(O)C(O)=C1C2=O", "40 to 100%"),
]
